molecular target: mu opioid receptor (MOR) (Homo sapiens); test: PathHunter β-arrestin recruitment assay, PAM mode with EC20 endomorphin-1; type: cell-based; details: β-arrestin recruitment; read-out: β-arr. EC50
Sequence (P35372 whole entry): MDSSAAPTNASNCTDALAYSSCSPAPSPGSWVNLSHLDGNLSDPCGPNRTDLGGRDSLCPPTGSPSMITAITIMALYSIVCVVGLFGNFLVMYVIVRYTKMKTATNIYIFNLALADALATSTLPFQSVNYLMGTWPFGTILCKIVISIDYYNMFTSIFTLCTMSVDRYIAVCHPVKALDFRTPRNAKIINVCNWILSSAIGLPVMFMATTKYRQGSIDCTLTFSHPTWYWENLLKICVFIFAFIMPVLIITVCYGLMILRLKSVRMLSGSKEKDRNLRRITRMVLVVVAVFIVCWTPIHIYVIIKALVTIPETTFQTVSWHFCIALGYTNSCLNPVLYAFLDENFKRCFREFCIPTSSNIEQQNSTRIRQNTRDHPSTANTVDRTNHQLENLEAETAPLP
pEC50: −log10 of the molar value.
Answer each item with its documented pEC50.

As a guide, the following entries are already answered.
compound="FC(F)(F)c1ccc(N2CCCCC2c2cccc(C(F)(F)F)n2)cc1 (stereo not drawn)" readout_label=pEC50 value_measured="< 5.68"
compound="O=S(=O)(c1ccc(Cl)cc1)N1C2CCC(C2)C1c1ccc(F)c(Br)c1 (stereo not drawn) [Compound 179]" readout_label=pEC50 value_measured="5.68 to 6.15"
compound="FC(F)(F)c1cccc(C2CCCCN2Cc2ccnc(Cl)c2)n1 (stereo not drawn)" readout_label=pEC50 value_measured="< 5.68"
compound="COc1ccc(C2CC(C(F)(F)F)CN2S(=O)(=O)c2ccc(Cl)cc2)cc1Br (single isomer, unassigned) [Compound 111]" readout_label=pEC50 value_measured="< 5.68"
compound="Fc1cnc(Cl)nc1N1CCCCC1c1cccc2nccn12 (stereo not drawn)" readout_label=pEC50 value_measured="< 5.68"

For the 6 compounds below, give their pEC50 values.
1. Fc1ccc(C(F)(F)F)cc1C1CCCCN1c1ccnc(Cl)n1 (stereo not drawn)
2. O=S(=O)(c1ccc(Cl)cc1)N1CCCCC1c1ccc(F)c(Br)c1 (racemic) [compound 60]
3. [2H]C1(c2cccc(C(F)(F)F)c2)C(F)CCCN1Cc1cccc(Br)c1 (stereo not drawn)
4. COc1ccc(C2CCCCN2S(=O)(=O)c2ccc(Cl)cc2)cc1Cl (racemic)
5. Cc1cnc(N2CCCCC2c2cccc(F)n2)nc1Cl (stereo not drawn)
6. COc1ccc(C2CCCCN2S(=O)(=O)c2ccc(Cl)cc2)cc1Br (single isomer, unassigned) [compound 6]

["> 6.15", "> 6.15", "5.68 to 6.15", "< 5.68", "< 5.68", "5.68 to 6.15"]

Below is a list of compounds. For each, state its recorded pEC50.
1. COc1cccc(N2CCCCC2c2cccc(C(F)(F)F)n2)c1 (stereo not drawn)
2. Fc1cnc(Cl)nc1N1CCCCC1c1cccc(C(F)(F)F)c1F (stereo not drawn)
3. Fc1cnc(Cl)nc1N1CCCCC1c1ccccc1 (stereo not drawn)

< 5.68
> 6.15
> 6.15

Here are 4 compounds. What values of pEC50 were reported for them?
1. Fc1cnc(Cl)nc1N1CCCCC1c1ccc2nccn2c1 (stereo not drawn)
2. O=S(=O)(c1ccc(Cl)cc1)N1CCCCC1c1cc(F)cc(C(F)(F)F)c1 (racemic) [compound 50]
3. OC1CCN(c2nc(Cl)ncc2F)C(c2ccc(F)c(Cl)c2)C1 (stereo not drawn)
4. CC1CC(c2cc(F)cc(C(F)(F)F)c2)N(c2nc(Cl)ncc2F)C1 (stereo not drawn)

["> 6.15", "< 5.68", "< 5.68", "< 5.68"]
